- Test system: HOP-62
- experiment_notes: NCI tumour cell line growth inhibition, 48 h
The source made the active and inactive calls. No stated cut-off is given here; in the data, active = GI50 up to about 1.1 µM and inactive = higher.
test_readout: GI50

>>> result("C=C(C(=O)O[C@H]1C(=O)C2=C(C)CCC3C(=C)C(=O)O[C@@H]3C2[C@]1(C)O)C1CC[C@]2(C)CCCC(=C)[C@H]2C1 (stereo partly specified)")
"8.32 µM (inactive)"
>>> result("COC(=O)C(=O)C(/C(=N/N)C(=O)Nc1ccccc1C(N)=O)c1nc2ccc([N+](=O)[O-])cc2nc1O (stereo unspecified)")
"> 100 µM (inactive)"
>>> result("O=C(N/N=C\\c1cccs1)c1ccncc1")
"> 100 µM (inactive)"
>>> result("OC(c1cccs1)c1cc2ccccc2s1 (stereo unspecified)")
"> 10 µM (inactive)"
>>> result("Nc1ccc(C(c2ccccc2)(c2ccccc2)c2ccccc2)cc1")
"27.9 µM (inactive)"
>>> result("O=C(CC1OC(O)C(Cl)=C1Cl)c1cccnc1 (stereo unspecified)")
"> 50.2 µM (inactive)"
>>> result("N/C(=N\\O)N/N=C/c1cc(Br)cc(Br)c1O")
"4.21 µM (inactive)"
>>> result("CC(/C=C/C(=O)c1sc(-n2nc(-c3ccccc3)cc2-c2ccccc2)nc1C)=C\\c1ccccc1")
"> 10 µM (inactive)"
>>> result("C(=C\\Nc1ccc(-c2ccccc2)cc1)/C=N/c1ccc(-c2ccccc2)cc1")
"> 100 µM (inactive)"
>>> result("CC1Cc2c(Br)nc(N)nc2NC1=O (stereo unspecified)")
"> 100 µM (inactive)"

Turning now to a further record.
Q) // GI50 lookup, key: Cc1cnc(-c2ccccc2)o1
A) > 100 µM (inactive)

Reference for the values: ChEMBL document CHEMBL1201862
